Reference for the values: PubChem BioAssay (NCI)

Test system: MDA-MB-231 breast
Experiment: NCI tumour cell line growth inhibition, 48 h
Entries and their GI50

Example compounds with recorded GI50:
COc1ccc(NC(=O)c2ccc(NC3=C(Cl)C(=O)N(Cc4ccccc4)C3=O)cc2)cc1 :: 11.9 µM
O=P(O)(O)OC1C(OP(=O)(O)O)C(OP(=O)(O)O)C(OP(=O)(O)O)C(OP(=O)(O)O)C1OP(=O)(O)O (stereo not drawn) :: > 2000 µM

Attention now shifts to the item below.
Query: Lab note: need GI50 with MDA-MB-231 breast for entry COc1ccc([C@H]2c3cc(OC)c(OC)cc3C=C(C=O)C2CO)cc1OC (stereo partly drawn) , please look it up.
Response: 6.74 µM

###

Tested on: ACHN renal
Assay: NCI tumour cell line growth inhibition, 48 h
Entries and their TGI

Example compounds with recorded TGI:
CC(=O)NNc1nc(C)c(C(/C=C/c2ccc(/C=C/C(=N\NC(=O)c3ccncc3)c3sc(NNC(C)=O)nc3C)cc2)=N/NC(=O)c2ccncc2)s1 :: > 100 µM
c1ccc2c(c1)c1c(n2CCOCCN2CCCCC2)CCCC1 :: 27.7 µM
[O-][n+]1onc2c3nn(-c4ccccc4)nc3ccc21 :: > 100 µM
Nn1c(Cc2ccc(Cl)cc2)n[nH]c1=O :: > 100 µM
COc1cc2c(cc1OCCCC(=O)Nc1cc(C(=O)Nc3cc(C(=O)Nc4cc(C(=O)NCCCN(C)C)n(C)c4)n(C)c3)n(C)c1)N=C[C@@H]1CCCN1C2=O :: 2.99 µM
COc1cc(-c2cc(-c3ccc(N(C)C)cc3)nc(N3CCC(O)CC3)c2C#N)cc(OC)c1OC :: > 100 µM
COC1OC(OC)C2C(c3c(C)cc(C)cc3C)=NOC12 (centres undefined) :: > 100 µM
C[N+](C)(C)CC(=O)N/N=C(/C=C/c1ccccc1)CC1OC(=O)c2ccccc21 (centres undefined) :: > 100 µM

Attention now shifts to the item below.
Query: # TGI lookup, item CCCOC(=O)C1CCC(=O)N1C(=O)C(Cl)Cl (centres undefined)
Response: > 100 µM

###

System: UO-31 renal
Test: NCI tumour cell line growth inhibition, 48 h
value.kind: TGI

O=C(Nc1nc2ncn(CCOC(=O)c3ccccc3)c2c(=O)[nH]1)c1ccccc1 :: > 100 µM
Cc1ccccc1N=C(N)NC#N :: > 100 µM

Attention now shifts to the item below.
Query: # TGI lookup, item NNC(=O)CC(=O)Nc1ccc(Cl)cc1
Response: > 100 µM

###

Test system: CCRF-CEM leukemia
Experiment: NCI tumour cell line growth inhibition, 48 h
Entries and their TGI

Example compounds with recorded TGI:
COc1cc2c(cc1OC)C1CN3C(=O)CCC3C(O)C1c1cc(OC)c(OC)cc1-2 (centres undefined) :: > 100 µM
CCOC(=O)C1=CN=C2C(=O)N(c3ccccc3)N(C)C2(C)C1=N (centres undefined) :: > 100 µM
Cc1cn(C2CC(O)C(CO)C2C)c(=O)[nH]c1=O (centres undefined) :: > 100 µM

Attention now shifts to the item below.
Query: Lab note: need TGI with CCRF-CEM leukemia for entry Oc1nc(N/N=C/c2c[nH]c3ccccc23)[nH]c1/C=C1\C=Nc2ccccc21 , please look it up.
Response: 25.3 µM

###

Entries and their GI50
Test system: OVCAR-4 ovarian
Assay: NCI tumour cell line growth inhibition, 48 h

CCN1CCN(C(=O)[C@]23CC[C@@H](C)[C@H](C)[C@@H]2C2=CC[C@@H]4[C@@]5(C)C/C(=C/c6cccnc6)C(=O)C(C)(C)[C@@H]5CC[C@@]4(C)[C@]2(C)CC3)CC1 :: 2570 nM
O=C(Nc1ccc(Cl)c(Cl)c1)Nc1ccc(Cl)c([N+](=O)[O-])c1 :: 768 nM
CCCCc1ccc2nc(NC(=O)OC)[nH]c2c1 :: 1700 nM
COc1ccc(C(=O)/C=C/c2ccc(Cl)cc2)cc1S(N)(=O)=O :: 3460 nM

Attention now shifts to the item below.
Query: Lab note: need GI50 with OVCAR-4 ovarian for entry COc1ccc(/C=C2/SC(=Nc3c(C)nn(-c4ccccc4)c3N)NC2=O)cc1 , please look it up.
Response: 8210 nM
